Target: RARγ (Homo sapiens)
Construct: His6-3C-SUMO (cleaved yes); made in house; host or cells: E. coli BL21(DE3), pOPINS3C vector
Sequence (P13631 185-419 limits assumed): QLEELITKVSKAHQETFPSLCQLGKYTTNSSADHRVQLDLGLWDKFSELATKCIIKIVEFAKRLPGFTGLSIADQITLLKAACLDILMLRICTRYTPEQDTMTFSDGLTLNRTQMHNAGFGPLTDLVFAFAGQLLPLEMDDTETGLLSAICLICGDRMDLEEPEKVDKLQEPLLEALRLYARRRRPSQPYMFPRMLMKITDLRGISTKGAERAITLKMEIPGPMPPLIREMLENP
Test: Fluorescence competition binding assay (displacement of DC271)
Settings: experimental binding free energy from K D, ΔGexp=−RT ln K, 298.1 K
Below, each entry is listed alongside its reported ΔGEXP RARγ.
Form entry: value (kcal/mol) — number only.

| query-smiles | reported-property | scale-unit | measured |
| --- | --- | --- | --- |
| CC1(C)CCC(C)(C)c2cc(C#Cc3ccc(C(=O)O)c(F)c3)ccc21 | ΔGEXP RARγ | kcal/mol | -10.6 |

Q: Data request, read-out ΔGEXP RARγ, for Cc1cc2c(cc1C#Cc1cc(F)c(C(=O)O)c(F)c1)C(C)(C)CCC2(C)C
A: -10.2

Q: Data request, read-out ΔGEXP RARγ, for Cc1cc2c(cc1C#Cc1ccc(C(=O)O)cn1)C(C)(C)CCC2(C)C
A: -9.61

Q: Data request, read-out ΔGEXP RARγ, for Cc1cc2c(cc1C#Cc1ncc(C(=O)O)cn1)C(C)(C)CCC2(C)C
A: -8.36

Q: Data request, read-out ΔGEXP RARγ, for CC1(C)CCC(C)(C)c2cc(C#Cc3cc(F)c(C(=O)O)c(F)c3)ccc21
A: -10.4

Q: Data request, read-out ΔGEXP RARγ, for CC1(C)CCC(C)(C)c2cc(C#Cc3ccc(C(=O)O)nc3)ccc21
A: -9.00

---

Biological target: RARγ (Homo sapiens)
Sequence (P13631 185-419 limits assumed): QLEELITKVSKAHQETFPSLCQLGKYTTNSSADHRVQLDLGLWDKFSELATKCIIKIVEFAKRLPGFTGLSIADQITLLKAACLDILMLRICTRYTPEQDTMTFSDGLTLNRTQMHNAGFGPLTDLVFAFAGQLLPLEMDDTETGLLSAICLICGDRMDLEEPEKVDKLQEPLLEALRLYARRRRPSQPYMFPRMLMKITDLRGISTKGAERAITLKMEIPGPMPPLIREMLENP
reported-property: log10 of Kd (log10 of the value in nM)
Response schema: value (number) is log10 of Kd in units of nM.

| compound | log10 of Kd |
| --- | --- |
| Cc1cc2c(cc1C#Cc1ccc(C(=O)O)cn1)C(C)(C)CCC2(C)C | 1.96 |
| CC1(C)CCC(C)(C)c2cc(C#Cc3ccc(C(=O)O)cc3Cl)ccc21 | 1.38 |
| Cc1sc(-c2ccc(C(=O)O)c(F)c2)nc1-c1cnc2c(n1)C(C)(C)CCC2(C)C | 2.12 |

Q: Data request, read-out log10 of Kd, for CC1(C)CCC(C)(C)c2cc(C#Cc3cc(F)c(C(=O)O)c(F)c3)ccc21
A: 1.36

Q: Data request, read-out log10 of Kd, for Cc1cc2c(cc1C#Cc1ccc(C(=O)O)cc1F)C(C)(C)CCC2(C)C
A: 1.27

Q: Data request, read-out log10 of Kd, for Cc1sc(-c2ccc(C(=O)O)cc2)nc1-c1ccc2c(c1)C(C)(C)CCC2(C)C [GZ25, reference compound]
A: 2.53

Q: Data request, read-out log10 of Kd, for Cc1cc2c(cc1C#Cc1ccc(C(=O)O)c(F)c1)C(C)(C)CCC2(C)C
A: 1.31

Q: Data request, read-out log10 of Kd, for CC1(C)CCC(C)(C)c2cc(C#Cc3ccc(C(=O)O)cn3)ccc21
A: 1.39

---

Target: RARα (Homo sapiens)
Construct: His6-3C-NusA (cleaved yes); made in house; host or cells: E. coli BL21(DE3), pET50b vector
Sequence (P10276 183-417 limits assumed): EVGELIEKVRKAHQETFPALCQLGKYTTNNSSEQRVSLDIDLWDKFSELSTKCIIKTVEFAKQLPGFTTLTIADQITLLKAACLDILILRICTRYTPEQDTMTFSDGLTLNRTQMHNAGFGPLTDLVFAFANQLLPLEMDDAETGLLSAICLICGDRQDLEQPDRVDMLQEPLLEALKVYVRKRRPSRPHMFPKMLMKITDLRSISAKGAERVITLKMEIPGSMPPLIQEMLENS
Test: Fluorescence competition binding assay (displacement of DC271)
Conditions: 100 nM RAR and DC271 on plate; read-out: Binding KD (± SD) RARα
reported-property: log10 Kd (log10 of the value in nM)
Response schema: value (number) is log10 of Kd in units of nM.

The examples below pair each entry with its known result.
| query-smiles | measured |
| --- | --- |
| CC1(C)CCC(C)(C)c2nc(C#Cc3ccc(C(=O)O)cc3F)cnc21 | 2.31 |
| Cc1sc(-c2ccc(C(=O)O)cc2F)nc1-c1cnc2c(n1)C(C)(C)CCC2(C)C | 3.41 |
| Cc1cc2c(cc1C#Cc1cc(F)c(C(=O)O)c(F)c1)C(C)(C)CCC2(C)C | 0.76 |
| CC1(C)CCC(C)(C)c2cc(C#Cc3ccc(C(=O)O)cc3Cl)ccc21 | 1.87 |

Q: Data request, read-out log10 Kd, for Cc1cc2c(cc1C#Cc1ccc(C(=O)O)cc1F)C(C)(C)CCC2(C)C
A: 1.26

Q: Data request, read-out log10 Kd, for Cc1sc(-c2ccc(C(=O)O)cc2)nc1-c1cnc2c(n1)C(C)(C)CCC2(C)C
A: 2.75

Q: Data request, read-out log10 Kd, for CC1(C)CCC(C)(C)c2cc(C#Cc3ccc(C(=O)O)nc3)ccc21
A: 1.94

---

Biological target: RARα (Homo sapiens)
Construct: His6-3C-NusA (cleaved yes); made in house; host or cells: E. coli BL21(DE3), pET50b vector
Assay: Fluorescence competition binding assay (displacement of DC271)
Details: experimental binding free energy from K D, ΔGexp=−RT ln K, 298.1 K
Below, each entry is listed alongside its reported ΔGEXP RARα.

The examples below pair each entry with its known result.
| compound | measured |
| --- | --- |
| CC1(C)CCC(C)(C)c2cc(C#Cc3ccc(C(=O)O)nc3)ccc21 [Compound 24] | -9.64 kcal/mol |
| COc1cc2c(cc1C#Cc1ccc(C(=O)O)cn1)C(C)(C)CCC2(C)C [Compound 27] | -7.84 kcal/mol |
| CC1(C)CCC(C)(C)c2cc(C#Cc3cc(F)c(C(=O)O)c(F)c3)ccc21 [Compound 15] | -13.0 kcal/mol |
| Cc1cc2c(cc1C#Cc1cc(F)c(C(=O)O)c(F)c1)C(C)(C)CCC2(C)C [Compound 19] | -11.3 kcal/mol |
| CC1(C)CCC(C)(C)c2cc(C#Cc3ccc(C(=O)O)cn3)ccc21 [Compound 23] | -10.7 kcal/mol |

Q: Which ΔGEXP RARα is reported with RARα (Homo sapiens) for this entry: CC1(C)CCC(C)(C)c2cc(C#Cc3ccc(C(=O)O)cc3Cl)ccc21 [Compound 16] ?
A: -9.79 kcal/mol

Q: Which ΔGEXP RARα is reported with RARα (Homo sapiens) for this entry: Cc1cc2c(cc1C#Cc1ncc(C(=O)O)cn1)C(C)(C)CCC2(C)C [Compound 28] ?
A: -8.72 kcal/mol

---

Below, each entry is listed alongside its reported pEC50.
System: Sil-15 cells containing a RARE driving a lacZ reporter
Assay: X-Gal-based RA reporter assay (genomic response)
Type: cell-based
Details: read-out: genomic response EC50 (±95% CI); Sil-15 reporter cells, overnight, 10^–6 to 10^–14 M
Just so you know, pEC50 here is -log10 of the concentration in molar units; reply with that number alone.

The examples below pair each entry with its known result.
| compound | pEC50 |
| --- | --- |
| Cc1cc2c(cc1C#Cc1ccc(C(=O)O)cn1)C(C)(C)CCC2(C)C [Compound 26] | 9.37 |
| Cc1sc(-c2ccc(C(=O)O)cc2F)nc1-c1cnc2c(n1)C(C)(C)CCC2(C)C [Compound 43] | 8.79 |
| CC1(C)CCC(C)(C)c2nc(C#Cc3ccc(C(=O)O)cc3F)cnc21 [Compound 31] | 9.42 |
| CC1(C)CCC(C)(C)c2cc(C#Cc3cnc(C(=O)O)cn3)ccc21 [Compound 25] | 8.40 |
| Cc1sc(-c2ccc(C(=O)O)c(F)c2)nc1-c1cnc2c(n1)C(C)(C)CCC2(C)C [Compound 42] | 10.81 |
| Cc1cc2c(cc1C#Cc1ccc(C(=O)O)cc1F)C(C)(C)CCC2(C)C [Compound 18] | 8.86 |
| CC1=C(/C=C/C(C)=C/C=C/C(C)=C/C(=O)O)C(C)(C)CCC1 [ATRA, all-trans retinoic acid, reference compound] | 8.98 |

Proceed to the following item.
Q: Data request, read-out pEC50, for CC1(C)CCC(C)(C)c2cc(C#Cc3ccc(C(=O)O)cc3F)ccc21 [Compound 14]
A: 10.24
